Here's a roundup of IC50 values tested on Protein arginine N-methyltransferase 5 (Homo sapiens, UniProt O14744), taken from various published works.
Binary label based on IC50 with cut-off 100 nM: below gives true (1), not below gives false (0).

Examples from the recorded data:
(Q) Take the molecule CN(C)C(=O)c1ccc(OCc2cncc(-n3cc(-c4ccn(C)n4)c4c(N)ncnc43)c2)cc1N and say whether its IC50 is less than 100 nM.
(A) false (0)

(Q) Take the molecule CC(=O)c1cccc(Cn2ncc3ccc(-c4ccc(CNCCN)cc4)cc32)c1 and say whether its IC50 is less than 100 nM.
(A) false (0)

(Q) Take the molecule CON=C(C(=O)N1CC2(CC(Nc3cc(C(=O)NC[C@H](O)CN4CCc5ccccc5C4)ncn3)C2)C1)C1CC1 and say whether its IC50 is less than 100 nM.
(A) true (1)

(Q) Take the molecule CN(C)C(=O)c1cccc(Cn2cnc3ccc(-c4ccc(CNCCN)cc4)cc32)c1 and say whether its IC50 is less than 100 nM.
(A) true (1)

(Q) Take the molecule CC(C)n1ncc2c(C(=O)N(C)[C@@H](C)c3ccccc3)cc(-c3cccc(CN(C)CCN)c3)nc21 and say whether its IC50 is less than 100 nM.
(A) false (0)

New cases:
(Q) Take the molecule CN(C)C(=O)c1ccc(Cn2cnc3ccc(-c4ccc(CNCCN)cc4)cc32)cc1 and say whether its IC50 is less than 100 nM.
(A) false (0)

(Q) Take the molecule NCCNCc1ccc(-c2ccc3ncn(CC4CCCNC4)c3c2)cc1 (centres unmarked) and say whether its IC50 is less than 100 nM.
(A) false (0)

---

Here's a roundup of pIC50 values tested on Protein arginine N-methyltransferase 5 (Homo sapiens, UniProt O14744), taken from various published works.
To interpret pIC50, take it as minus log10 of a concentration measured in moles per litre.

(Q) Supply measured pIC50 of CN1CCN(C(=O)c2cccc(Cn3cnc4ccc(-c5ccc(CNCCN)cc5)cc43)c2)CC1 in your reply.
(A) 6.87

(Q) Supply measured pIC50 of NCCNCc1ccc(-c2ccc3cnn(C4CCNCC4)c3c2)cc1 in your reply.
(A) 6.63

(Q) Supply measured pIC50 of Cc1[nH]c2ncc(-c3ccc(CNCCN)cc3)cc2c1C in your reply.
(A) 6.89

(Q) Supply measured pIC50 of CNCCN(C)Cc1cccc(-c2cc(C(=O)N(C)Cc3cccc(Cl)c3)c3cnn(C(C)C)c3n2)c1 in your reply.
(A) 5.83

(Q) Supply measured pIC50 of Nc1ncnc2c1ncn2[C@@H]1O[C@]2(C[C@H](Oc3ccc4cc(Cl)cnc4c3)C2)[C@@H](O)[C@H]1O in your reply.
(A) 6.59

(Q) Supply measured pIC50 of N#Cc1cccc(Cn2cnc3ccc(-c4ccc(CNCCN)cc4)cc32)c1 in your reply.
(A) 7.10

(Q) Supply measured pIC50 of CC(=NO)C(=O)N1CCC(Nc2cc(C(=O)NC[C@H](O)CN3CCc4ccccc4C3)ncn2)CC1 in your reply.
(A) 7.82

(Q) Supply measured pIC50 of COc1ccc(Cn2ncc3ccc(-c4ccc(CNCCN)cc4)cc32)cc1 in your reply.
(A) 6.87

(Q) Supply measured pIC50 of Cn1cnc2ccc(-c3ccc(CNCCN)cc3)cc21 in your reply.
(A) 6.60

(Q) Supply measured pIC50 of COc1ccc(Cn2cnc3ccc(-c4cccc(CNCCN)c4)cc32)cc1 in your reply.
(A) 5.97

---

pIC50: −log10 of the molar value.
Here's a roundup of pIC50 values tested on Protein arginine N-methyltransferase 5 (Homo sapiens), taken from various published works.

Known results for compounds:
(Q) GET pIC50 | system: Protein arginine N-methyltransferase 5 (Homo sapiens) | item: Cc1nc(N)nc2c1ccn2[C@@H]1C=C(COc2cc(F)c3cc(Cl)c(N)nc3c2)[C@@H](O)[C@H]1O
(A) 9.12 to 9.40

(Q) GET pIC50 | system: Protein arginine N-methyltransferase 5 (Homo sapiens) | item: COc1cccc(Cn2cnc3ccc(-c4ccc(CN(C)CCN)cc4)cc32)c1
(A) 4.80

(Q) GET pIC50 | system: Protein arginine N-methyltransferase 5 (Homo sapiens) | item: Nc1nc2cc(CCC3=C[C@@H](n4ccc5c(N)ncnc54)[C@H](O)[C@@H]3O)cc(F)c2cc1Br
(A) 9.02 to 9.52

New cases:
(Q) GET pIC50 | system: Protein arginine N-methyltransferase 5 (Homo sapiens) | item: Nc1ncnc2c1ccn2[C@@H]1C[C@H](CCc2ccc3c(c2)nc(N)n2ccnc32)[C@@H](O)[C@H]1O
(A) > 9.00

---

Here's a roundup of IC50 values tested on Protein arginine N-methyltransferase 5 (Homo sapiens, UniProt O14744), taken from various published works.

Known results for compounds:
(Q) Supply measured IC50 of Nc1nc2cc(C[C@H]3C[C@@]4(C[C@@H](n5ccc6c(N)ncnc65)[C@H](O)[C@@H]4O)C3)ccc2s1 in your reply.
(A) 132 nM

(Q) Supply measured IC50 of CN(CCc1ccccn1)C(=O)c1cncc(-c2ccc(CNCCN)cc2)c1 in your reply.
(A) 393 nM

(Q) Supply measured IC50 of Cc1cc2c(c(CCC3=C[C@@H](n4ccc5c(N)ncnc54)[C@H](O)[C@@H]3O)c1)CNCC2 in your reply.
(A) 0.25 to 0.95 nM

(Q) Supply measured IC50 of CNCCN(C)Cc1cccc(-c2cc(C(=O)N(C)Cc3ccccc3F)c3cnn(C(C)C)c3n2)c1 in your reply.
(A) 670 nM

(Q) Supply measured IC50 of CNc1ccc2ccc(OCc3cncc(-n4cc(C5CCCC5)c5c(N)ncnc54)c3)cc2n1 in your reply.
(A) > 1000 nM

(Q) Supply measured IC50 of Nc1nc2cc(CCC3=C[C@@H](n4ccc5c(N)ncnc54)[C@H](O)[C@@H]3O)ccc2cc1Br in your reply.
(A) 0.3 to 0.95 nM

(Q) Supply measured IC50 of Cc1cc(N)c2ccc(OCc3cncc(-n4ccc5c(N)ncnc54)c3)cc2n1 in your reply.
(A) > 1000 nM

(Q) Supply measured IC50 of Cc1cc(N)c2ccc(OCc3cncc(-n4cc(Cl)c5c(N)ncnc54)c3)cc2n1 in your reply.
(A) > 1000 nM

New cases:
(Q) Supply measured IC50 of Nc1ncnc2c1ccn2[C@@H]1C[C@]2(C[C@H](Cc3ccn4ccnc4c3)C2)[C@@H](O)[C@H]1O in your reply.
(A) 9.12 nM

(Q) Supply measured IC50 of CCc1cc(N2CCC2)nc2cc(OCc3cncc(-n4cc(C5CCCO5)c5c(N)ncnc54)c3)cc(F)c12 (centres unmarked) in your reply.
(A) > 1000 nM

---

Here's a roundup of pIC50 values tested on Protein arginine N-methyltransferase 5 (Homo sapiens, UniProt O14744), taken from various published works.
pIC50: −log10 of the molar value.

Known results for molecules:
(Q) GET pIC50 | system: Protein arginine N-methyltransferase 5 (Homo sapiens, UniProt O14744) | item: CCc1cc(N(C)C2CC2)c2ccc(OCc3cncc(-n4cc([C@@H]5CCCO5)c5c(N)ncnc54)n3)cc2n1
(A) < 6.00

(Q) GET pIC50 | system: Protein arginine N-methyltransferase 5 (Homo sapiens, UniProt O14744) | item: NC1=Nc2cc(CC[C@H]3C[C@@H](n4ccc5c(N)ncnc54)[C@H](O)[C@@H]3O)ccc2[C@@H]2C[C@H]12 (single isomer, unassigned)
(A) > 9.00

Consider the record given below.
(Q) GET pIC50 | system: Protein arginine N-methyltransferase 5 (Homo sapiens, UniProt O14744) | item: Nc1nc2cc(CC[C@@]34C[C@@H]3[C@@H](n3ccc5c(N)ncnc53)[C@H](O)[C@@H]4O)ccc2cc1Br
(A) 9.02 to 9.52

---

Here's a roundup of IC50 values tested on Protein arginine N-methyltransferase 5 (Homo sapiens, UniProt O14744), taken from various published works.

Known results for compounds:
(Q) Supply measured IC50 of Cc1ncnc2c1ccn2[C@@H]1C=C(CCc2cc(F)c3cc(Br)c(N)nc3c2)[C@@H](O)[C@H]1O in your reply.
(A) 0.3 to 0.95 nM

(Q) Supply measured IC50 of Nc1nc2cc(CC[C@@]34C[C@@H]3[C@@H](n3ccc5c(N)ncnc53)[C@H](O)[C@@H]4O)ccc2cc1Cl in your reply.
(A) 0.3 to 0.95 nM

(Q) Supply measured IC50 of NCCNCc1ccc(-c2ccc3ncn(C4CCNCC4)c3c2)cc1 in your reply.
(A) 418 nM

New cases:
(Q) Supply measured IC50 of Cn1ccc(-c2cn(-c3cncc(COc4ccc(C(=O)N5CCNCC5)c(N)c4)c3)c3ncnc(N)c23)n1 in your reply.
(A) > 1000 nM

---

Here's a roundup of IC50 values tested on Protein arginine N-methyltransferase 5 (Homo sapiens), taken from various published works.

(Q) GET IC50 | system: Protein arginine N-methyltransferase 5 (Homo sapiens) | item: NC1=Nc2cc(CC[C@H]3C[C@@H](n4ccc5c(N)ncnc54)[C@H](O)[C@@H]3O)ccc2C2=NCCN12
(A) < 0.001 µM

(Q) GET IC50 | system: Protein arginine N-methyltransferase 5 (Homo sapiens) | item: Cc1cc(NCCN(C)CCCCc2ccccc2)c2ccc(OCc3cncc(-n4ccc5c(N)ncnc54)c3)cc2n1
(A) > 1 µM

(Q) GET IC50 | system: Protein arginine N-methyltransferase 5 (Homo sapiens) | item: CCc1cc(N)c2ccc(OCc3cncc(-n4ccc5c(N)ncnc54)c3)cc2n1
(A) > 1 µM

(Q) GET IC50 | system: Protein arginine N-methyltransferase 5 (Homo sapiens) | item: Cn1ccc(-c2cn(-c3cncc(COc4ccc5ccc(N6CCOCC6)nc5c4)c3)c3ncnc(N)c23)n1
(A) 0.1 to 1 µM

(Q) GET IC50 | system: Protein arginine N-methyltransferase 5 (Homo sapiens) | item: Nc1nc2cc(CCC[C@H]3C[C@@H](n4ccc5c(N)ncnc54)[C@H](O)[C@@H]3O)ccc2cc1Br
(A) 0.001 to 0.1 µM

New cases:
(Q) GET IC50 | system: Protein arginine N-methyltransferase 5 (Homo sapiens) | item: C[C@H]1CNc2nc3cc(CC[C@H]4O[C@@H](n5ccc6c(N)ncnc65)[C@H](O)[C@@H]4O)ccc3cc2O1
(A) 0.001 to 0.1 µM

(Q) GET IC50 | system: Protein arginine N-methyltransferase 5 (Homo sapiens) | item: CNc1ccc2ccc(OCc3cncc(-n4ccc5c(N)ncnc54)c3)cc2n1
(A) > 1 µM

(Q) GET IC50 | system: Protein arginine N-methyltransferase 5 (Homo sapiens) | item: CNc1ccc2ccc(OCc3cccc(-n4cc(Br)c5c(N)ncnc54)c3)cc2n1
(A) > 1 µM

(Q) GET IC50 | system: Protein arginine N-methyltransferase 5 (Homo sapiens) | item: CC1COc2ccc(OCc3cncc(-n4cc(-c5ccn(C)n5)c5c(N)ncnc54)c3)cc2N1 (stereo not drawn)
(A) > 1 µM

(Q) GET IC50 | system: Protein arginine N-methyltransferase 5 (Homo sapiens) | item: COCCN(C)C(=O)c1ccc(OCc2cncc(-n3cc(-c4ccn(C)n4)c4c(N)ncnc43)c2)cc1N
(A) > 1 µM
